- Target of assay: Full-length HIV-1 YU2 gp120 (HIV-1 YU2, UniProt P35961 32-498)
- Experiment description: ELISA
Numbered stars: 1 amine (or outer) side, 2 acyl side, 3 side chain; on linkers, the order of the positions; unused ones are H or OH. Square brackets hold non-standard residues; d marks the D form. Ends that are not written are not given here. X3 = Pro(4S-(4-(4-aminophenyl)-1,2,3-triazol-1-yl)), O=C([C@@H]1C[C@H](n2cc(-c3ccc(N[*:3])cc3)nn2)CN1[*:1])[*:2]; Cit = NC(=O)NCCC[C@H](N)C(=O)O
Property measured: IC50 (µM)

In [3]: df
Out[3]:
                                     binder  reading_unit  test_value
0  [Cit]NNI[X3]WS-NH2 [UM25 peptide triazole]            µM          18
